Tested on: Mus musculus
Experiment: Gastrointestinal toxicity in mouse assessed as tail bleeding time at 200 mg/kg, po after 60 mins
Format: organism-based
Design: dose 200 mg/kg, route oral
Details: in vivo, 1 h
outcome.measure: Time (s)

INSERT INTO results (chemical_string, unit_descriptor, recorded_measurement) VALUES
  ('N[C@H]1CCCO[C@@H](c2ccc(Cl)cc2)OC1', 's', 118.4),
  ('C[C@@H]1O[C@H](c2ccc(Cl)cc2)OC[C@H]1N', 's', 118.7),
  ('N[C@H]1CCCO[C@H](c2ccc([N+](=O)[O-])cc2)OC1', 's', 118.5),
  ('N[C@H]1CO[C@H](c2ccccc2)OC1', 's', 119.7),
  ('C[C@@H]1O[C@@H](C=Cc2ccccc2)OC[C@H]1N', 's', 118.4),
  ('C[C@@H]1O[C@H](C=Cc2ccccc2)OC[C@H]1N', 's', 117.6),
  ('N[C@H]1CCO[C@@H](c2cccc([N+](=O)[O-])c2)OC1', 's', 118.5);

Reference source: ChEMBL document CHEMBL1140692
